System: LoVo/DX cells
Experiment: in vitro cytotoxicity (colony growth inhibition) against LoVo/DX cells
Type: cell-based, human
Settings: 4h of treatment; concentration inhibiting by 50% colony growth; tested as hydrochlorides
Mark satisfied for reported Cytotoxicity after 4h of treatment (IC50) LoVo/DX of 0.05 µg/mL or greater; mark not satisfied for anything smaller.

Worked examples follow.
CC(=O)[C@]1(O)Cc2c(O)c3c(c(O)c2[C@@H](O[C@H]2C[C@H](N4CCOCC4)[C@H](O)[C@H](C)O2)C1)C(=O)c1c(N)cccc1C3=O : not satisfied
CC(=O)[C@]1(O)Cc2c(O)c3c(c(O)c2[C@@H](O[C@H]2C[C@H](N4CCOCC4)[C@@H](O)[C@H](C)O2)C1)C(=O)c1c(F)cccc1C3=O : satisfied

Prompt line: Dear colleague, could you confirm whether COC1CN(C2CC(OC3CC(O)(C(C)=O)Cc4c(O)c5c(c(O)c43)C(=O)c3ccccc3C5=O)OC(C)C2O)CCO1 (centres unmarked) has Cytotoxicity after 4h of treatment (IC50) LoVo/DX at or above 0.05 µg/mL?
Response line: not satisfied

Prompt line: Dear colleague, could you confirm whether C[C@@H]1O[C@@H](O[C@H]2C[C@](O)(C(=O)CO)Cc3c2cc2c(c3O)C(=O)c3cccc(O)c3C2=O)C[C@H](N2CCOCC2)[C@@H]1O has Cytotoxicity after 4h of treatment (IC50) LoVo/DX at or above 0.05 µg/mL?
Response line: satisfied

Prompt line: Dear colleague, could you confirm whether CC(=O)[C@]1(O)Cc2c(O)c3c(c(O)c2[C@@H](O[C@H]2C[C@H](N4CCOCC4)[C@@H](O)[C@H](C)O2)C1)C(=O)c1c(N)cccc1C3=O has Cytotoxicity after 4h of treatment (IC50) LoVo/DX at or above 0.05 µg/mL?
Response line: not satisfied

----------
Tested on: LoVo (human colon adenocarcinoma)
Test: in vitro cytotoxicity (colony growth inhibition) against LoVo cells
Format: cell-based
Conditions: concentration inhibiting by 50% colony growth, tested as hydrochlorides
readout: Cytotoxicity after 4h of treatment (IC50) LoVo (µg/mL)
The answer is to be given in µg/mL; state only the numeric part.

Solved cases below.
C[C@@H]1O[C@@H](O[C@H]2C[C@](O)(C(=O)CO)Cc3c2cc2c(c3O)C(=O)c3cccc(O)c3C2=O)C[C@H](N2CCOCC2)[C@@H]1O : 0.0355
CC(=O)[C@]1(O)Cc2c(O)c3c(c(O)c2[C@@H](O[C@H]2C[C@H](N4CCOCC4)[C@H](O)[C@H](C)O2)C1)C(=O)c1c(N)cccc1C3=O : 0.0137
CC(=O)[C@]1(O)Cc2c(O)c3c(c(O)c2[C@@H](O[C@H]2C[C@H](N4CCOCC4)[C@@H](O)[C@H](C)O2)C1)C(=O)c1c(F)cccc1C3=O : 0.047
COC1CN(C2CC(OC3CC(O)(C(C)=O)Cc4c(O)c5c(c(O)c43)C(=O)c3ccccc3C5=O)OC(C)C2O)CCO1 (centres unmarked) : 0.0002

Below: the item to evaluate.
Prompt line: Which Cytotoxicity after 4h of treatment (IC50) LoVo is reported for this compound? CC(=O)[C@]1(O)Cc2c(O)c3c(c(O)c2[C@@H](O[C@H]2C[C@H](N4CCOCC4)[C@@H](O)[C@H](C)O2)C1)C(=O)c1c(N)cccc1C3=O
Response line: 0.036

----------
System: LoVo/DX cells
Assay: in vitro cytotoxicity (colony growth inhibition) against LoVo/DX cells
Type: cell-based, human
Conditions: ratio of IC50 LoVo/DX to IC50 LoVo
readout: R.I. = Resistance Index = (IC50 LoVo/DX)/(IC50 LoVo)
Number only, please.

Solved cases below.
COc1cccc2c1C(=O)c1c(O)c3c(c(O)c1C2=O)C[C@@](O)(C(=O)CO)C[C@@H]3O[C@H]1C[C@H](N)[C@H](O)[C@H](C)O1 [Doxorubicin, reference compound] : 36
CC(=O)[C@]1(O)Cc2c(O)c3c(c(O)c2[C@@H](O[C@H]2C[C@H](N4CCOCC4)[C@H](O)[C@H](C)O2)C1)C(=O)c1c(N)cccc1C3=O : 2.1

Below: the item to evaluate.
Prompt line: Which R.I. = Resistance Index = (IC50 LoVo/DX)/(IC50 LoVo) is reported for this compound? COC1CN(C2CC(OC3CC(O)(C(C)=O)Cc4c(O)c5c(c(O)c43)C(=O)c3ccccc3C5=O)OC(C)C2O)CCO1 (stereo not drawn)
Response line: 11.5

----------
Experiment: in vivo
Conditions: mouse, in vivo, iv
readout: MTD (mg/kg)
The answer is to be given in mg/kg; state only the numeric part.

COc1cccc2c1C(=O)c1c(O)c3c(c(O)c1C2=O)C[C@@](O)(C(=O)CO)C[C@@H]3O[C@H]1C[C@H](N)[C@H](O)[C@H](C)O1 [Doxorubicin, reference compound] : 13

Below: the item to evaluate.
Prompt line: Which MTD is reported for this molecule? CC(=O)[C@]1(O)Cc2c(O)c3c(c(O)c2[C@@H](O[C@H]2C[C@H](N4CCOCC4)[C@@H](O)[C@H](C)O2)C1)C(=O)c1c(F)cccc1C3=O [Ie]
Response line: 6.3

----------
Test system: LoVo/DX cells
Experiment: in vitro cytotoxicity (colony growth inhibition) against LoVo/DX cells
Type: cell-based, human
Details: ratio of IC50 LoVo/DX to IC50 LoVo
This listing pairs compounds with measured R.I. = Resistance Index = (IC50 LoVo/DX)/(IC50 LoVo).

CC(=O)[C@]1(O)Cc2c(O)c3c(c(O)c2[C@@H](O[C@H]2C[C@H](N4CCOCC4)[C@@H](O)[C@H](C)O2)C1)C(=O)c1c(F)cccc1C3=O : 3.6
C[C@@H]1O[C@@H](O[C@H]2C[C@](O)(C(=O)CO)Cc3c2cc2c(c3O)C(=O)c3cccc(O)c3C2=O)C[C@H](N2CCOCC2)[C@@H]1O : 4.7

Below: the item to evaluate.
Prompt line: Request - read-out R.I. = Resistance Index = (IC50 LoVo/DX)/(IC50 LoVo) | tested on LoVo/DX cells | compound CC(=O)[C@]1(O)Cc2c(O)c3c(c(O)c2[C@@H](O[C@H]2C[C@H](N4CCOCC4)[C@@H](O)[C@H](C)O2)C1)C(=O)c1c(N)cccc1C3=O
Response line: 1.3
